test target: human NAAA (Homo sapiens)
Construct: expressed in transfected cells; host or cells: HEK-293 (stably transfected, G418 selection); enzyme-enriched lysate
test: In vitro human NAAA fluorogenic assay
Type: biochemical
experimental conditions: enzyme-enriched lysate of HEK-293 cells stably transfected with human NAAA; read-out: Activity h-NAAA Fluorogenic assay
pIC50: −log10 of the molar value.
metric name: pIC50

Known results for compounds:
- compound: "Cc1ccccc1OC1CC2CCC(C1)N2S(=O)(=O)c1c(C)n[nH]c1C (centres unmarked) [Example 12]"
  pIC50: "> 6.00"
- compound: "Cc1n[nH]c(C)c1S(=O)(=O)N1C2CCC1CC(Oc1ccc(C(C)C)cc1)C2 (centres unmarked)"
  pIC50: "> 6.00"
- compound: "CCCOc1ccc(OC2CC3CCC(C2)N3S(=O)(=O)c2c(C)n[nH]c2C)cc1 (centres unmarked)"
  pIC50: "> 6.00"
- compound: "CCCCc1ccc(OC2CC3CCC(C2)N3S(=O)(=O)c2c(C)nn(C)c2C)cc1 (centres unmarked)"
  pIC50: "> 6.00"
- compound: "Cc1n[nH]c(C)c1S(=O)(=O)N1[C@@H]2CC[C@H]1C[C@H](Oc1cccnn1)C2"
  pIC50: "< 5.70"

Exercise: Would you kindly share the measured pIC50 for Cc1n[nH]c(C)c1S(=O)(=O)N1C2CCC1CC(Oc1ccc(-c3ccccc3)cc1)C2 (centres unmarked) ?
Key: 5.70 to 6.00

Exercise: Then Cc1cccc(OC2CC3CCC(C2)N3S(=O)(=O)c2c(C)n[nH]c2C)c1 (centres unmarked) [Example 04] ?
Key: > 6.00

Exercise: Cool, now Cc1n[nH]c(C)c1S(=O)(=O)N1C2CCC1CC(Oc1nc3ccccc3o1)C2 (centres unmarked)
Key: > 6.00

----------
test target: human NAAA (Homo sapiens)
Construct: expressed in transfected cells; host or cells: HEK-293 (stably transfected, G418 selection); enzyme-enriched lysate
test: In vitro human NAAA fluorogenic assay
Type: biochemical
experimental conditions: enzyme-enriched lysate of HEK-293 cells stably transfected with human NAAA; read-out: Activity h-NAAA Fluorogenic assay
IC50 overview

- compound: "CCCCc1ccc(OC2CC3CCC(C2)N3S(=O)(=O)c2c(C(C)C)n[nH]c2C)cc1 (stereo not shown) [Example 20]"
  IC50: "< 1000 nM"
- compound: "CCOCc1cnc(OC2CC3CCC(C2)N3S(=O)(=O)c2c(C)n[nH]c2C)cn1 (stereo not shown) [Example 41]"
  IC50: "< 1000 nM"
- compound: "CCN(CC)Cc1ccc(OC2CC3CCC(C2)N3S(=O)(=O)c2c(C)n[nH]c2C)cc1 (stereo not shown) [Example 32]"
  IC50: "> 2000 nM"

Next up:
Exercise: Any idea what IC50 was measured for CCOCc1ccc(OC2CC3CCC(C2)N3S(=O)(=O)c2c(C)n[nH]c2C)cc1 (stereo not shown) [Example 35] ?
Key: < 1000 nM

----------
test target: human NAAA (Homo sapiens, UniProt Q02083)
Construct: expressed in transfected cells; host or cells: HEK-293 (stably transfected, G418 selection); enzyme-enriched lysate
Sequence (Q02083 126-359 limits assumed): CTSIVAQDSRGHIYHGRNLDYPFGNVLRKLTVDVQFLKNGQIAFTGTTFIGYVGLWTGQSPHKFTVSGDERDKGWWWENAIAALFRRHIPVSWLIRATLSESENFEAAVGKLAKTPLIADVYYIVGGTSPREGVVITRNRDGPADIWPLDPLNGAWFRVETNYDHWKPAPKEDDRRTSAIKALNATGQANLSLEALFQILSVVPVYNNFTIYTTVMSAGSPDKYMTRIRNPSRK
Sequence (Q02083 29-125 limits assumed): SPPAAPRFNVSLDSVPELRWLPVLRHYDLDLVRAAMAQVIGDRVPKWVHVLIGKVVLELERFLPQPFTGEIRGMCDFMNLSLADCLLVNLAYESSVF
test: In vitro human NAAA fluorogenic assay
Assay type: biochemical
experimental conditions: enzyme-enriched lysate of HEK-293 cells stably transfected with human NAAA; read-out: Activity h-NAAA Fluorogenic assay
Procedure: Human recombinant proteins were obtained from HEK-293 stable overexpressing NAAA cell lines. Cells were grown in Dulbecco's modified Eagle medium (DMEM) containing 10% FBS, 1% penicillin/streptomycin, 1% glutamine and 500 μg/mL G418. To obtain membrane preparation cells were scraped off with cold phosphate-buffered saline (PBS) and collected by centrifugation (300×g, 7 min, 4° C.). Cell pellet were stored at −80° C. until protein preparation. In Vitro Human NAAA Assay […]
metric name: IC50

- molecule: "Cc1ccc(OC2CC3CCC(C2)N3S(=O)(=O)c2c(C)n[nH]c2C)c(F)c1 (centres unmarked)"
  experimental result: "< 1000 nM"
- molecule: "Cc1n[nH]c(C)c1S(=O)(=O)N1C2CCC1CC(Oc1ccc(C(F)(F)F)cc1)C2 (centres unmarked)"
  experimental result: "< 1000 nM"

Exercise: Any idea what IC50 was measured for Cc1n[nH]c(C)c1S(=O)(=O)N1C[C@H]2CCC[C@@H](C1)[C@@H]2Oc1cnccn1 ?
Key: < 1000 nM

Exercise: Item: Cc1n[nH]c(C)c1S(=O)(=O)N1C2CCCC1CC(Oc1cnccn1)C2 (centres unmarked) [Example 44]
Key: < 1000 nM

Exercise: CCc1ccc(OC2CC3CCC(C2)N3S(=O)(=O)c2c(C)n[nH]c2C)cc1 (centres unmarked) ?
Key: < 1000 nM
